# key: entry, value: pIC50
target: ATR kinase (Homo sapiens (Human), UniProt Q13535); experiment: Assay b) ATR cellular potency assay (pChk1 Ser345 in HT29 cells treated with 4NQO); details: HT29 cells, pChk1 Ser345 after 4NQO; geometric mean where repeated; read-out: Assay b) ATR Cell IC50
Sequence (Q13535 whole entry): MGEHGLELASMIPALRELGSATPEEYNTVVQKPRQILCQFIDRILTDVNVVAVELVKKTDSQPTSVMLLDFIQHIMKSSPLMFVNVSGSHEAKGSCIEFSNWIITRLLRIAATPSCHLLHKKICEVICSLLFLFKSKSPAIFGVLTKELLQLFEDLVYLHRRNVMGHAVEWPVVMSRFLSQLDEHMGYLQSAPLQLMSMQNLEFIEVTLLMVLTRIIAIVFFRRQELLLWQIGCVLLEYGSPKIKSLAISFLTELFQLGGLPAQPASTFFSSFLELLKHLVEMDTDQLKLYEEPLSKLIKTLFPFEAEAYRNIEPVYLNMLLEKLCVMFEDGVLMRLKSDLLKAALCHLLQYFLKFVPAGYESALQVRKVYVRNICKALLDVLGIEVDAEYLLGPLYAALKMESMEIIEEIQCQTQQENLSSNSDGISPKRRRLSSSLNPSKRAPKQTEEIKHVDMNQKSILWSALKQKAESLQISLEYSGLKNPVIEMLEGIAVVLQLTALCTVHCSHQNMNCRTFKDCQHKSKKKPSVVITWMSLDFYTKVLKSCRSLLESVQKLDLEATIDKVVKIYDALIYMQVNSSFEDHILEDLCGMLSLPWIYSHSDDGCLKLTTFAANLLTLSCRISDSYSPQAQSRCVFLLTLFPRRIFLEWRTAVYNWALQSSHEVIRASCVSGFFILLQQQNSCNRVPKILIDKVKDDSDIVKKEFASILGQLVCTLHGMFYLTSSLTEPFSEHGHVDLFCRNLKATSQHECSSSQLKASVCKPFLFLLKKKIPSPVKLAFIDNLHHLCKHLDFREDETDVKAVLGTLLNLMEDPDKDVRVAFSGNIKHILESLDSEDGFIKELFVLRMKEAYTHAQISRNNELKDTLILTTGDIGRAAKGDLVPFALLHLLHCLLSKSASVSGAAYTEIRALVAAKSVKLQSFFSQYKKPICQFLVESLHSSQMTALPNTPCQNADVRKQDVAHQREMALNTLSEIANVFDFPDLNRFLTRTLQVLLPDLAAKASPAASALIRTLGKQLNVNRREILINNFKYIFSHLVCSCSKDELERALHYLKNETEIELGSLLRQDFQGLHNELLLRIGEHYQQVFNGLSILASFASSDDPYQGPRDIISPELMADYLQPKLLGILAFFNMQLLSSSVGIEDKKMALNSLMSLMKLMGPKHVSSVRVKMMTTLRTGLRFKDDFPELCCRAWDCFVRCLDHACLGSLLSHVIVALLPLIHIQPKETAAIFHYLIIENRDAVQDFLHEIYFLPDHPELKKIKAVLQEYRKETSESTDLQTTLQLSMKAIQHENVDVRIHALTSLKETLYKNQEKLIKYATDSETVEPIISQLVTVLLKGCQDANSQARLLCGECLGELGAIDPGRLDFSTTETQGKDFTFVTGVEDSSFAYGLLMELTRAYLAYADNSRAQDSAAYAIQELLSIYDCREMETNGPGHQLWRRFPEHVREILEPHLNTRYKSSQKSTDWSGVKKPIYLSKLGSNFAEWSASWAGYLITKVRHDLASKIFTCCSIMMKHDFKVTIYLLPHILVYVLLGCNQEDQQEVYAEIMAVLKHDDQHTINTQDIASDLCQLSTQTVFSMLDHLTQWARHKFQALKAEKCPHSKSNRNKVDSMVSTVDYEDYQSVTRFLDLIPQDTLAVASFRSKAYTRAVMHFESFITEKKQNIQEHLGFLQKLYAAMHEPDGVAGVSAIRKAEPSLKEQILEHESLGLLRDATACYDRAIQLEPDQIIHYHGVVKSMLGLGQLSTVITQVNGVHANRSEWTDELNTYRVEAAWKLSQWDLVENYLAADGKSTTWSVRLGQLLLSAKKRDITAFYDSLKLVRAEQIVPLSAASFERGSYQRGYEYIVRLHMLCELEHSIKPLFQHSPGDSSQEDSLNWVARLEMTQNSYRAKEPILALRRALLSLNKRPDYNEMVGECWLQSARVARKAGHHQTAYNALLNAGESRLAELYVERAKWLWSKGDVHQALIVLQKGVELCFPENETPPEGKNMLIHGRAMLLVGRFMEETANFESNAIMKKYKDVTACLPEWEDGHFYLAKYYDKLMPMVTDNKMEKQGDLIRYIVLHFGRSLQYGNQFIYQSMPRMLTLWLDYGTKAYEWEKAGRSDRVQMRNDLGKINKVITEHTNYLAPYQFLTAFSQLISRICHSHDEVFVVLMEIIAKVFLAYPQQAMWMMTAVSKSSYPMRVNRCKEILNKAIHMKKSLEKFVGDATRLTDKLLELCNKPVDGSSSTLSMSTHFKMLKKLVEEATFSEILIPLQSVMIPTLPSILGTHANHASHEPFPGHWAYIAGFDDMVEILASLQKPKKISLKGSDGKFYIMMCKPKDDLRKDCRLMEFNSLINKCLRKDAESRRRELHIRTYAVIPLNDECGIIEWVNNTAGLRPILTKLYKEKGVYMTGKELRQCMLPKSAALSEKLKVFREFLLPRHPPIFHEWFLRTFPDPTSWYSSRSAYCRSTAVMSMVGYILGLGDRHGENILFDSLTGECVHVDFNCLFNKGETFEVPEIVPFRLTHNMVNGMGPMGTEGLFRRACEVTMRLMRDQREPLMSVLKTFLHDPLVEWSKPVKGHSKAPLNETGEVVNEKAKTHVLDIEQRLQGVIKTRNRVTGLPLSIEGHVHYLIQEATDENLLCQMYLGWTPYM
Sequence (Q8WXE1 whole entry partner): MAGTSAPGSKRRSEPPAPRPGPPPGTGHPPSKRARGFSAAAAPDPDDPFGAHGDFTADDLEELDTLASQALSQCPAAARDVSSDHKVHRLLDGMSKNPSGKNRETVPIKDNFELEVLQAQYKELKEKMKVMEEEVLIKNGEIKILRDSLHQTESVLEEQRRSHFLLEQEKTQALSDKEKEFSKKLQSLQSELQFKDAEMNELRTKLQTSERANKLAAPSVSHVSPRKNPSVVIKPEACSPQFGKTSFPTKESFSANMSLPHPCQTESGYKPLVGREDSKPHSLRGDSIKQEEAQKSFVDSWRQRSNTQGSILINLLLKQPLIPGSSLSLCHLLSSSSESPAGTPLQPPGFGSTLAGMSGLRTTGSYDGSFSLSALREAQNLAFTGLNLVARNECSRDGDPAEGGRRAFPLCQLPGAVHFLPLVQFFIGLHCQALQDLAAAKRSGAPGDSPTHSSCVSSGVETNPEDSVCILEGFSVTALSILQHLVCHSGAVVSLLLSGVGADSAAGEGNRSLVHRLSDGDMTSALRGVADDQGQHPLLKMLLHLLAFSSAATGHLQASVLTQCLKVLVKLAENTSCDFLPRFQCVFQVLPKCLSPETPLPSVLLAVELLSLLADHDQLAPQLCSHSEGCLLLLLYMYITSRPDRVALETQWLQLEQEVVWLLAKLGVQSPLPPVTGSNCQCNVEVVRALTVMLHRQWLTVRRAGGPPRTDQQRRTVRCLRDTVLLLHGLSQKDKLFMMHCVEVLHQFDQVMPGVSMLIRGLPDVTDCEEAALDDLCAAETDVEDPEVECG
pIC50: −log10 of the molar value. Structures can show the parent of a compound that is named as a salt.

Use the examples below as a reference point.
compound	readout_value
CO[C@H]1C[C@@H](n2c(=O)n(C)c3cnc4ccc(-c5ccc(OCCCN6CCCC6)nc5)cc4c32)C1	< 4.64
Cn1c(=O)n([C@H]2CCCOC2)c2c3cc(-c4ccc(OCCCN5CCCCC5)nc4)c(F)cc3ncc21	< 4.52
Cn1c(=O)n(C2CCOCC2)c2c3cc(-c4ccc(OCCCN5CCCC5)nc4)ccc3ncc21	4.72
CN(C)CCCOc1ccc(-c2ccc3ncc4c(c3c2)n([C@H]2CCOC2)c(=O)n4C)c(F)n1	< 4.52
CO[C@H]1C[C@@H](n2c(=O)n(C)c3cnc4cc(F)c(-c5ccc(OCCCN(C)C)nc5F)cc4c32)C1	< 4.52

Task: Param item = CO[C@H]1CC[C@H](n2c(=O)n(C)c3cnc4ccc(-c5ccc(OCCCN6CCCCC6)nc5)cc4c32)C1 ; retrieve measured pIC50.
Output: < 4.58

Task: Same for Cn1c(=O)n([C@H]2CCCOC2)c2c3cc(-c4ccc(OCCCN5CCCC5)nc4)c(F)cc3ncc21
Output: < 4.52

Task: Same for Cn1c(=O)n(C2CCC2)c2c3cc(-c4ccc(OCCCN5CCCCC5)nc4)ccc3ncc21 [Example 57, trifluoroacetic acid salt]
Output: < 4.52

Task: Same for CN(C)CCCOc1ccc(-c2ccc3ncc4c(c3c2)n(C2CCC2)c(=O)n4C)cn1
Output: < 4.59

Task: Same for CN(C)CCCOc1ccc(-c2cc3c(cc2F)ncc2c3n(C3(C)CCOCC3)c(=O)n2C)cn1
Output: < 4.52

Task: Same for Cn1c(=O)n([C@H]2CCCOC2)c2c3cc(-c4ccc(OCCCN5CCCC5)nc4)ccc3ncc21
Output: 4.72

Task: Same for CO[C@@H]1CC[C@H](n2c(=O)n(C)c3cnc4cc(F)c(-c5ccc(OCCCN(C)C)nc5)cc4c32)C1
Output: < 4.52

Task: Same for CN(C)CCCOc1ccc(-c2ccc3ncc4[nH]c(=O)n(C5CCOCC5)c4c3c2)cn1
Output: < 4.52

###

target: PI3K-α (Homo sapiens, UniProt P42336); assay: Assay c) PI3K cellular potency assay (phospho-Akt T308 ELISA in BT474 cells); format: cell-based; details: BT474 cells, phospho-Akt T308, 2 h; geometric mean where repeated; read-out: Assay c) PI3Kα Cell IC50
Sequence (P42336 whole entry, looked up): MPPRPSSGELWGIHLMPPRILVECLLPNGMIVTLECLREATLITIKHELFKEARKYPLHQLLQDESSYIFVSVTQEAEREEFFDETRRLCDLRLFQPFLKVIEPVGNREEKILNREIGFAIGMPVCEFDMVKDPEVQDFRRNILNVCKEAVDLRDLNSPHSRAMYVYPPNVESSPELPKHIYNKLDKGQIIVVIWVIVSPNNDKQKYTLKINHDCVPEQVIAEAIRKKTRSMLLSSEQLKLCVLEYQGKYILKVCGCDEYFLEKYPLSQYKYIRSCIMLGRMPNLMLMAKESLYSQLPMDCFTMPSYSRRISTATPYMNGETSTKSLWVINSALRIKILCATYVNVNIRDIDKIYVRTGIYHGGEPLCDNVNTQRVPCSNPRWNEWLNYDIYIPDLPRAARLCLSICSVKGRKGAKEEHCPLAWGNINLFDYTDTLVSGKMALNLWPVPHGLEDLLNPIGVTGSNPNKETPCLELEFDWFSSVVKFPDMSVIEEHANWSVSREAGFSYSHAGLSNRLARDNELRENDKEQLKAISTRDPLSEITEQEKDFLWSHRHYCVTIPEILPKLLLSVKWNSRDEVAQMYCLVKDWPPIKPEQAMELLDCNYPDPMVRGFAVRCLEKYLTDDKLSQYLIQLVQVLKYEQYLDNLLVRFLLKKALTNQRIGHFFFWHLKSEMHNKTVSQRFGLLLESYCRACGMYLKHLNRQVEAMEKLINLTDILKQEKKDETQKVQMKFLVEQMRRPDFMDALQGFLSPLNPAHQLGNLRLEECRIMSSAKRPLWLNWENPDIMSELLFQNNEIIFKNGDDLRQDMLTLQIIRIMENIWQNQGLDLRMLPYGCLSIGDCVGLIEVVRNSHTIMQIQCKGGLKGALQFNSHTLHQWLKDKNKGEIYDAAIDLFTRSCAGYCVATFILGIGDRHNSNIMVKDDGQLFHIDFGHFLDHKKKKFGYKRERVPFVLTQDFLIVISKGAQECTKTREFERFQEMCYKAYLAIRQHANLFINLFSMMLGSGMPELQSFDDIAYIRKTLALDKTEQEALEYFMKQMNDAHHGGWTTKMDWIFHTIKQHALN
readout_label: pIC50
Interpret pIC50 as the negative base-10 log of the concentration measured in mol/L.

Use the examples below as a reference point.
molecule	readout_value
CN(C)CCCOc1ccc(-c2ccc3ncc4c(c3c2)n([C@@H]2CCOC2)c(=O)n4C)cn1	6.25
CN(C)CCCOc1ccc(-c2cc3c(cc2F)ncc2c3n(C3(C)CCOCC3)c(=O)n2C)cn1	4.65
CO[C@H]1C[C@@H](n2c(=O)[nH]c3cnc4ccc(-c5ccc(OCCCN6CCCC6)nc5)cc4c32)C1	5.52
CO[C@H]1CC[C@H](n2c(=O)n(C)c3cnc4ccc(-c5ccc(OCCCN6CCCC6)nc5)cc4c32)C1	5.83
CO[C@H]1CC[C@H](n2c(=O)n(C)c3cnc4ccc(-c5ccc(OCCCN6CCCCC6)nc5)cc4c32)C1	5.74
CO[C@@H]1CC[C@@H](n2c(=O)n(C)c3cnc4ccc(-c5ccc(OCCCN(C)C)nc5F)cc4c32)C1	6.19
CN(C)CCCOc1ccc(-c2ccc3ncc4c(c3c2)n(C2CCOCC2)c(=O)n4C)c(F)n1	6.17
Cn1c(=O)n(C2CCCOC2)c2c3cc(-c4ccc(OCCCN5CCC5)nc4)ccc3ncc21 (stereo in doubt)	6.30
CN(C)CCCOc1ccc(-c2ccc3ncc4c(c3c2)n(C2COC2)c(=O)n4C)c(F)n1	5.14

Task: Enter reported pIC50 observed with PI3K-α (Homo sapiens, UniProt P42336) for CNCCCOc1ccc(-c2ccc3ncc4c(c3c2)n([C@H]2CCCOC2)c(=O)n4C)cn1
Output: 6.57

###

biological target: mTOR (Homo sapiens (Human), UniProt P42345); assay: Assay d) mTOR cellular potency assay (phospho-AKT Ser473 in MDA-MB-468 cells); conditions: MDA-MB-468 cells, phospho-AKT Ser473, 2 h; geometric mean where repeated; read-out: Assay d) mTOR Cell IC50
Okay, here is how we bin by IC50: bin 1 = under 1 µM, bin 2 = from 1 µM up to 3 µM, bin 3 = 3 µM and over

molecule	label_class
Cn1c(=O)n([C@H]2C[C@@H](O)C2)c2c3cc(-c4ccc(OCCCN5CCCC5)nc4)ccc3ncc21 [Example 15]	bin 2
CNCCCOc1ccc(-c2ccc3ncc4c(c3c2)n([C@H]2C[C@@H](OC)C2)c(=O)n4C)cn1 [Example 42]	bin 1
CO[C@@H]1CC[C@@H](n2c(=O)n(C)c3cnc4ccc(-c5ccc(OCCCN(C)C)nc5F)cc4c32)C1 [Example 68]	bin 3
CO[C@@H]1CC[C@H](n2c(=O)n(C)c3cnc4cc(F)c(-c5ccc(OCCCN(C)C)nc5)cc4c32)C1 [Example 71]	bin 3
CN(C)CCCOc1ccc(-c2ccc3ncc4c(c3c2)n([C@H]2CCOC2)c(=O)n4C)cn1 [Example 45]	bin 2
Cn1c(=O)n(C2CCC2)c2c3cc(-c4ccc(OCCCN5CCCC5)nc4)ccc3ncc21 [Example 58]	bin 3
CO[C@H]1CC[C@H](n2c(=O)n(C)c3cnc4ccc(-c5ccc(OCCCN6CCCCC6)nc5)cc4c32)C1 [Example 65]	bin 3
CO[C@H]1C[C@@H](n2c(=O)[nH]c3cnc4ccc(-c5ccc(OCCCN6CCCC6)nc5)cc4c32)C1 [Example 35]	bin 1
CO[C@H]1C[C@@H](n2c(=O)n(C)c3cnc4ccc(-c5ccc(OCCCN(C)C)nc5)cc4c32)C1 [Example 2]	bin 2
CO[C@H]1C[C@@H](n2c(=O)[nH]c3cnc4ccc(-c5ccc(OCCCN(C)C)nc5)cc4c32)C1 [Example 12]	bin 1

Task: // return the class label for Cn1c(=O)n([C@H]2CCCOC2)c2c3cc(-c4ccc(OCCCN5CCCC5)nc4)c(F)cc3ncc21 [Example 23]
Output: bin 3

Task: Same for CN(C)CCCOc1ccc(-c2ccc3ncc4c(c3c2)n([C@@H]2CCCOC2)c(=O)n4C)c(F)n1 [Example 22]
Output: bin 2

Task: Same for CO[C@H]1C[C@@H](n2c(=O)n(C)c3cnc4ccc(-c5ccc(OCCCN6CCCC6)nc5)cc4c32)C1 [Example 28]
Output: bin 2

###

target: PI3K-α (Homo sapiens, UniProt P42336); assay: Assay c) PI3K cellular potency assay (phospho-Akt T308 ELISA in BT474 cells); conditions: BT474 cells, phospho-Akt T308, 2 h; geometric mean where repeated; read-out: Assay c) PI3Kα Cell IC50
readout_label: IC50 (nM)
Your answer is read as nM, so omit the unit and give the number.

Use the examples below as a reference point.
compound	target	IC50, nM
CN(C)CCCOc1ccc(-c2cc3c(cc2F)ncc2c3n(C3CCOCC3)c(=O)n2C)cn1 [Example 8]	PI3K-α (Homo sapiens, UniProt P42336)	18100
Cn1c(=O)n(C2CCOCC2)c2c3cc(-c4ccc(OCCCN5CCC5)nc4)ccc3ncc21 [Example 39]	PI3K-α (Homo sapiens, UniProt P42336)	828
Cn1c(=O)n(C2CCOCC2)c2c3cc(-c4ccc(OCCCN5CCCC5)nc4)ccc3ncc21 [Example 30]	PI3K-α (Homo sapiens, UniProt P42336)	2330

Proceeding to the next compound to report its IC50.
Task: Param item = CN(C)CCCOc1ccc(-c2ccc3ncc4c(c3c2)n([C@@H]2CCCOC2)c(=O)n4C)cn1 [Example 16] ; retrieve measured IC50.
Output: 311

###

target: ATM kinase (Homo sapiens (Human), UniProt Q13315); assay: Assay a) ATM cellular potency assay (pATM Ser1981 in X-ray irradiated HT29 cells); settings: HT29 cells, pATM Ser1981 after X-ray irradiation; geometric mean where repeated; read-out: Assay a) ATM Cell IC50
Assign labels as follows, please: satisfied for IC50 below 0.4 nM; not satisfied for IC50 equal to or exceeding 0.4 nM.

compound	label_class
Cn1c(=O)n([C@H]2CCCOC2)c2c3cc(-c4ccc(OCCCN5CCCC5)nc4)c(F)cc3ncc21 [Example 23]	not satisfied
Cn1c(=O)n([C@H]2CCOC2)c2c3cc(-c4ccc(OCCCN5CCCCC5)nc4)ccc3ncc21 [Example 55]	not satisfied
CNCCCOc1ccc(-c2ccc3ncc4c(c3c2)n([C@H]2C[C@@H](OC)C2)c(=O)n4C)cn1 [Example 42]	satisfied
Cn1c(=O)n(C2CCOCC2)c2c3cc(-c4ccc(OCCCN5CCC5)nc4)ccc3ncc21 [Example 39]	not satisfied
Cn1c(=O)n([C@@H]2CCCOC2)c2c3cc(-c4ccc(OCCCN5CCC5)nc4)ccc3ncc21 [Example 34]	not satisfied
CO[C@H]1CC[C@H](n2c(=O)n(C)c3cnc4ccc(-c5ccc(OCCCN6CCCCC6)nc5)cc4c32)C1 [Example 65]	satisfied

Pending compound:
Task: Dear colleague, could you confirm whether IC50 of CN(C)CCCOc1ccc(-c2ccc3ncc4c(c3c2)n([C@H]2CCCOC2)c(=O)n4C)c(F)n1 [Example 20] falls below 0.4 nM? Thanks.
Output: satisfied
